ASSAY_TARGET: T1, Tfam L6 (Homo sapiens, UniProt Q00059 43-246, K136A;H137A;K139A;R140A;K146A;K147A)
T1 sequence: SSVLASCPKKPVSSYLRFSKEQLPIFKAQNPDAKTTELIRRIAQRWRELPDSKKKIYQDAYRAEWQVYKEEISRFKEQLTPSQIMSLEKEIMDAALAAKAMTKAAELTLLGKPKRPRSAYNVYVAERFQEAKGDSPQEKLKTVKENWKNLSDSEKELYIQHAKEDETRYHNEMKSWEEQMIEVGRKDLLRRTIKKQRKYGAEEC
ASSAY: intrinsic Trp fluorescence quenching
ENDPOINT: pKd
One number for each entry, as −log10 of the molar value.

Ask | Can you look up the measured pKd of LSP 28 bp (dsDNA) DNA 1: TGTTAGTTGGGGGGTGACTGTTAAAAGT DNA 2: ACTTTTAACAGTCACCCCCCAACTAACA for me?
Reply | 8.00
